molecular target: T1, Hu/NoV/GII.4/MD145-12/1997/U.S. VLP (human norovirus GII.4); assay: VLP ELISA
T1 construct: mature; baculovirus VLP; VP2 may be present
minimum concentration of VHH able to recognize 100 ng of VLP values, listed per item
State the answer as a number, implicitly in ng/well.

The examples below pair each entry with its known result.
| binder | recorded-number |
| --- | --- |
| VHH 7.5 (VHH, llama VHH, MD2004 library; pHEN6, C-terminal His6 tag; also called clone 7.5) VHH: QVKLQESGGGLVQAGESLRLSCAASGSNFSINGVGWYRQAPGKQRELVAGITNGGYTSYADSVKGRFTISTDNAKNTVYLQMNSLRPEDTAVYYCNANFQIHRSGADYVRNYWGQGTQVTVSA | 0.5 |
| VHH 5.4 (VHH, llama VHH, MD2004 library; pHEN6, C-terminal His6 tag; also called clone 5.4) VHH: QVQLQQSGGGLVQPGGSLRLSCVASESTVSINIMGWYRQAPGKQRELVATITTGGTTNYADSVKGRFTISRDNAKNTVYLQMNSLEPEDTAVYYCNLKRRDLQARFGGYWGQGTQVTVSS | 4 |
| VHH 1 (VHH, llama VHH, MD2004 (GII.4) library; pHEN6, C-terminal His6 tag; also called 1.1; clone 1) VHH: QVQLQQSGGGLVQAGGSLRLSCAASGLAFSSYAITWLRQAPGTEREFVALISGSGSSTYYADSVKGRFTISRNNAKNTVYLQMNSLKPEDTAVYYCTASEFLLHPPPPNQKYDYWGQGTQVTVSS | 0.5 |

Given the binder VHH 4.1 (VHH, llama VHH, MD2004 library; pHEN6, C-terminal His6 tag; also called clone 4.1) VHH: QVKLQQSGGGLVQPGGSLRLSCAASESTISINTLGWYRQAPGNQRELVATITTGGTTNYADSVKGRFTISRDNAKNTVYLQMNNLEPGDTAVYYCNLKRRDLQSRFGGYWGQGTQVTVSS , write its reported minimum concentration of VHH able to recognize 100 ng of VLP.
2

Reference for the values: patent US20200283507A1
